src = ChEMBL document CHEMBL4715843

assay: Antiproliferative activity against human SB-590885-sensitive 451Lu cells assessed as reduction in cell viability measured after 48 hrs by MTS assay; format: functional
Test Readout: pIC50
# pIC50 = -log10(concentration in molar units)

Ask | State the recorded pIC50 for this entry: "CCCS(=O)(=O)Nc1ccc(F)c(C(=O)c2c[nH]c3ncc(Cl)cc23)c1F"
Reply | 7.21

Ask | Repeat for the following compound: "C=CCn1c(SCC(=O)Nc2ccc(/C(C)=N\O)cc2)nnc1-c1cc(-c2ccc(Cl)cc2)nc2ccccc12"
Reply | 4.95

Ask | Repeat for the following compound: "C=CCn1c(SCC(=O)Nc2ccc(/C(C)=N\O)cc2)nnc1-c1cc(-c2ccccc2)nc2ccccc12"
Reply | 5.75

###

molecular target: Signal transducer and activator of transcription 3 (Homo sapiens); test: Inhibition of STAT3 phosphorylation at S727 residue in human SB-590885-sensitive 451Lu cells measured after 12 hrs by Western blot analysis; details: dose 10-25 µM
The source made the active and inactive calls. The rule behind the calls is not given here.
Test Readout: inhibition

The cases that follow already have their inhibition on record.
- Smiles Input: "COc1ccc(-c2cc(-c3nnc(SCC(=O)Nc4ccc(/C(C)=N\\O)cc4)n3-c3ccccc3)c3cc(OC)ccc3n2)cc1"
  Measured On: "Signal transducer and activator of transcription 3 (Homo sapiens)"
  inhibition: "inactive"
- Smiles Input: "COc1ccc2nc(-c3ccc(OC)c(OC)c3)cc(-c3nnc(SCC(=O)Nc4ccc(/C(C)=N\\O)cc4)n3-c3ccccc3)c2c1"
  Measured On: "Signal transducer and activator of transcription 3 (Homo sapiens)"
  inhibition: "inactive"
- Smiles Input: "C=CCn1c(SCC(=O)Nc2ccc(/C(C)=N\\O)cc2)nnc1-c1cc(-c2ccccc2)nc2ccccc12"
  Measured On: "Signal transducer and activator of transcription 3 (Homo sapiens)"
  inhibition: "Dose-dependent effect"
- Smiles Input: "COc1ccc2nc(-c3ccc(Cl)cc3)cc(-c3nnc(SCC(=O)Nc4ccc(/C(C)=N\\O)cc4)n3-c3ccccc3)c2c1"
  Measured On: "Signal transducer and activator of transcription 3 (Homo sapiens)"
  inhibition: "inactive"

# context switch: different compound, same inhibition
Ask | State the recorded inhibition for this entry: "C=CCn1c(SCC(=O)Nc2ccc(/C(C)=N\O)cc2)nnc1-c1cc(-c2ccc(Cl)cc2)nc2ccccc12"
Reply | Dose-dependent effect

###

target: Signal transducer and activator of transcription 3 (Homo sapiens); assay: Inhibition of STAT3 phosphorylation at S727 residue in human SB-590885-resistant MEL1617 cells at 10 to 25 uM measured after 12 hrs by Western blot analysis; format: cell-based; conditions: dose 10-25 µM
The source made the active and inactive calls. The calls are words filed in the database; no cut-off is given here.
Valid outcomes are listed here; reply with one: active, inactive

Ask | Could you check what this test reported for "COc1ccc2nc(-c3ccc(Cl)cc3)cc(-c3nnc(SCC(=O)Nc4ccc(/C(C)=N\O)cc4)n3-c3ccccc3)c2c1" ?
Reply | inactive

Ask | Repeat for the following compound: "C=CCn1c(SCC(=O)Nc2ccc(/C(C)=N\O)cc2)nnc1-c1cc(-c2ccc(Cl)cc2)nc2ccccc12"
Reply | active

Ask | Repeat for the following compound: "COc1ccc(-c2cc(-c3nnc(SCC(=O)Nc4ccc(/C(C)=N\O)cc4)n3-c3ccccc3)c3cc(OC)ccc3n2)cc1"
Reply | inactive

Ask | Repeat for the following compound: "C=CCn1c(SCC(=O)Nc2ccc(/C(C)=N\O)cc2)nnc1-c1cc(-c2ccccc2)nc2ccccc12"
Reply | active

Ask | Repeat for the following compound: "COc1ccc2nc(-c3ccc(OC)c(OC)c3)cc(-c3nnc(SCC(=O)Nc4ccc(/C(C)=N\O)cc4)n3-c3ccccc3)c2c1"
Reply | inactive

###

test system: HFF; experiment: Cytotoxicity against HFF assessed as inhibition of cell proliferation by MTS assay; format: cell-based, Homo sapiens; conditions: Homo sapiens, HFF; read-out: IC50
Answer each item with its documented IC50.
Give the figure together with its unit, number first.

Ask | State the recorded IC50 for this entry: "O=C(Nc1nnc(-c2ccco2)o1)c1cc(-c2ccccc2)nc2ccccc12"
Reply | 72.2 µM

Ask | Repeat for the following compound: "C=CCn1c(SCC(=O)Nc2ccc(/C(C)=N\O)cc2)nnc1-c1cc(-c2ccccc2)nc2ccccc12"
Reply | 54.4 µM

Ask | Repeat for the following compound: "C=CCn1c(SCC(=O)Nc2ccc(/C(C)=N\O)cc2)nnc1-c1cc(-c2ccc(Cl)cc2)nc2ccccc12"
Reply | 200 µM

###

target: UniProt P40763; test: Inhibition of STAT3 in human SB-590885-sensitive 451Lu cells assessed as reduction in STAT3 transcriptional activity measured after 12 hrs by Dual-luciferase reporter gene assay
Answer each item with its documented IC50.
Return type: number; implicit unit µM.

Ask | Enter reported IC50 observed with UniProt P40763 for "COc1ccc2nc(-c3ccc(Cl)cc3)cc(-c3nnc(SCC(=O)Nc4ccc(/C(C)=N\O)cc4)n3-c3ccccc3)c2c1"
Reply | 54

Ask | Repeat for the following compound: "C=CCn1c(SCC(=O)Nc2ccc(/C(C)=N\O)cc2)nnc1-c1cc(-c2ccc(Cl)cc2)nc2ccccc12"
Reply | 7.9

Ask | Repeat for the following compound: "C=CCn1c(SCC(=O)Nc2ccc(/C(C)=N\O)cc2)nnc1-c1cc(-c2ccccc2)nc2ccccc12"
Reply | 6.3

###

system: MCF-10A; experiment: Cytotoxicity against human MCF-10A cells assessed as inhibition of cell proliferation by MTS assay; assay type: cell-based; conditions: Homo sapiens, MCF-10A; read-out: IC50
Test Readout: IC50 (µM)
Return type: number; implicit unit µM.

Ask | State the recorded IC50 for this entry: "O=C(Nc1nnc(-c2ccco2)o1)c1cc(-c2ccccc2)nc2ccccc12"
Reply | 33.4

Ask | Repeat for the following compound: "C=CCn1c(SCC(=O)Nc2ccc(/C(C)=N\O)cc2)nnc1-c1cc(-c2ccccc2)nc2ccccc12"
Reply | 100

Ask | Repeat for the following compound: "C=CCn1c(SCC(=O)Nc2ccc(/C(C)=N\O)cc2)nnc1-c1cc(-c2ccc(Cl)cc2)nc2ccccc12"
Reply | 92.9

###

biological target: Signal transducer and activator of transcription 3 (Homo sapiens, UniProt P40763); assay: Inhibition of STAT3 phosphorylation at Y705 residue in human SB-590885-sensitive 451Lu cells measured after 12 hrs by Western blot analysis; conditions: dose 10-25 µM
Sequence (P40763 whole entry): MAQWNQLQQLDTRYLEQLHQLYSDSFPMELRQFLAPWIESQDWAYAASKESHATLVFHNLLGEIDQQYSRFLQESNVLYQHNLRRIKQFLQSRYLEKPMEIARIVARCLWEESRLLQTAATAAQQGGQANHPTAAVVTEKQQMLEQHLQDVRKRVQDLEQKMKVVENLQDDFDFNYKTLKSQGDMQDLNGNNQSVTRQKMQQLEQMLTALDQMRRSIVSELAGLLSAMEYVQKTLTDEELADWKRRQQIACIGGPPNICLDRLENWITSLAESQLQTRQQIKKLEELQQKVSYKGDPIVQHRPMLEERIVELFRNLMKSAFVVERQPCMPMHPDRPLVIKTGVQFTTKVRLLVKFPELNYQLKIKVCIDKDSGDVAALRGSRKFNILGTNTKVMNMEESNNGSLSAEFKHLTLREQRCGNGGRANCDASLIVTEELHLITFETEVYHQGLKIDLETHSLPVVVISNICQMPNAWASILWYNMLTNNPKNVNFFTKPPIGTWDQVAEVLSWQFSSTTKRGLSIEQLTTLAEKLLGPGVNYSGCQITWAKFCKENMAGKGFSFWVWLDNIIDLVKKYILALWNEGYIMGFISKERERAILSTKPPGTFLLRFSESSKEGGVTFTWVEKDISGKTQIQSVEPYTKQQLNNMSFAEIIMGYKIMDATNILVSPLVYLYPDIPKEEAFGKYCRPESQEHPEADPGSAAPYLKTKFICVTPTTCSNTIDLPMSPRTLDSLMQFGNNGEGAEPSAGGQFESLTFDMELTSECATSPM
Active and inactive are the calls of the source. No cut-off for these calls is given here.
Valid outcomes are listed here; reply with one: active, inactive

Ask | Could you check what this test reported for "C=CCn1c(SCC(=O)Nc2ccc(/C(C)=N\O)cc2)nnc1-c1cc(-c2ccccc2)nc2ccccc12" ?
Reply | active

Ask | Repeat for the following molecule: "COc1ccc2nc(-c3ccc(OC)c(OC)c3)cc(-c3nnc(SCC(=O)Nc4ccc(/C(C)=N\O)cc4)n3-c3ccccc3)c2c1"
Reply | inactive

Ask | Repeat for the following molecule: "COc1ccc(-c2cc(-c3nnc(SCC(=O)Nc4ccc(/C(C)=N\O)cc4)n3-c3ccccc3)c3cc(OC)ccc3n2)cc1"
Reply | inactive

Ask | Repeat for the following molecule: "COc1ccc2nc(-c3ccc(Cl)cc3)cc(-c3nnc(SCC(=O)Nc4ccc(/C(C)=N\O)cc4)n3-c3ccccc3)c2c1"
Reply | inactive

Ask | Repeat for the following molecule: "C=CCn1c(SCC(=O)Nc2ccc(/C(C)=N\O)cc2)nnc1-c1cc(-c2ccc(Cl)cc2)nc2ccccc12"
Reply | active

###

assay: Antiproliferative activity against human SB-590885-sensitive MEL1617 cells assessed as reduction in cell viability measured after 48 hrs by MTS assay; type: functional, cell-based; settings: MEL1617, 48 h
Answer each item with its documented pIC50.
# pIC50 = -log10(concentration in molar units)

Ask | State the recorded pIC50 for this entry: "C=CCn1c(SCC(=O)Nc2ccc(/C(C)=N\O)cc2)nnc1-c1cc(-c2ccc(Cl)cc2)nc2ccccc12"
Reply | 4.34

Ask | Repeat for the following compound: "CCCS(=O)(=O)Nc1ccc(F)c(C(=O)c2c[nH]c3ncc(Cl)cc23)c1F"
Reply | 7.08

Ask | Repeat for the following compound: "C=CCn1c(SCC(=O)Nc2ccc(/C(C)=N\O)cc2)nnc1-c1cc(-c2ccccc2)nc2ccccc12"
Reply | 5.08

###

target: UniProt:P40763; experiment: Inhibition of STAT3 phosphorylation at Y705 residue in human SB-590885-resistant 451Lu cells measured after 12 hrs by Western blot analysis; details: dose 10-25 µM
Activity calls are given as the source filed them. The rule behind the calls is not given here.
Valid outcomes are listed here; reply with one: true (1) = active, false (0) = inactive

Ask | Could you check what this test reported for "COc1ccc2nc(-c3ccc(Cl)cc3)cc(-c3nnc(SCC(=O)Nc4ccc(/C(C)=N\O)cc4)n3-c3ccccc3)c2c1" ?
Reply | false (0)

Ask | Repeat for the following compound: "C=CCn1c(SCC(=O)Nc2ccc(/C(C)=N\O)cc2)nnc1-c1cc(-c2ccc(Cl)cc2)nc2ccccc12"
Reply | true (1)

Ask | Repeat for the following compound: "C=CCn1c(SCC(=O)Nc2ccc(/C(C)=N\O)cc2)nnc1-c1cc(-c2ccccc2)nc2ccccc12"
Reply | true (1)

Ask | Repeat for the following compound: "COc1ccc2nc(-c3ccc(OC)c(OC)c3)cc(-c3nnc(SCC(=O)Nc4ccc(/C(C)=N\O)cc4)n3-c3ccccc3)c2c1"
Reply | false (0)

Ask | Repeat for the following compound: "COc1ccc(-c2cc(-c3nnc(SCC(=O)Nc4ccc(/C(C)=N\O)cc4)n3-c3ccccc3)c3cc(OC)ccc3n2)cc1"
Reply | false (0)
